pIC50: −log10 of the molar value.
Ok so here's the combined literature set: pIC50 for PIK3CG (human) (UniProt P48736).
Rule: true for pIC50 not less than 5, false for anything less.

Solved entries:
molecularstring=Cc1nc2ccccc2n1-c1cc(N2CCOCC2)n2nc(CN3CCC(C(C)(C)O)CC3)cc2n1 discretelabel=false
molecularstring=CCc1nc2ccccc2n1-c1cc(N2CCOCC2)n2nc(CN3CCN(C(C)(C)C)CC3)cc2n1 discretelabel=false
molecularstring=COc1ncc(-c2ccc3c(c2)N(CCCN2CCOCC2)C(=O)CO3)cc1NS(=O)(=O)c1ccc(F)cc1F discretelabel=true

Quick check: does "CC(C)N1CCN(C(=O)c2cc3nc(-n4c(C(F)F)nc5ccccc54)cc(N4CCOCC4)n3n2)CC1" have pIC50 greater than or equal to 5?
false

Quick check: does "Cc1cc2c(cc1C)[n+](Cc1ccccc1Br)cn2Cc1ccc2c(c1)CCO2.[Br-]" have pIC50 greater than or equal to 5?
true

Quick check: does "COc1ccc([C@@H]2CC(=O)c3c(O)cc(O)cc3O2)cc1O" have pIC50 greater than or equal to 5?
false

Quick check: does "COc1ncc(-c2ccc3nccc(/C=C/C(=O)N(C)CCO)c3c2)cc1NS(=O)(=O)c1ccc(F)cc1F" have pIC50 greater than or equal to 5?
true

Quick check: does "COc1ncc(-c2ccc3nccc(/C=C/C(=O)N4CCN(C)CC4)c3c2)cc1NS(=O)(=O)c1ccc(F)cc1F" have pIC50 greater than or equal to 5?
true

Quick check: does "O=c1c(-c2ccc(O)c(O)c2)coc2cc(O)cc(O)c12" have pIC50 greater than or equal to 5?
true
